pIC50 listing for selected compounds.
assay: Cytotoxicity against human U87 cells after 4 hrs by MTT assay; format: functional, cell-based, U-87MG ATCC; conditions: U-87 MG
Remember, pIC50 is on a log scale: it is -log10 of the molar concentration.

C[C@@H]1CC[C@@]2(OC1)O[C@H]1C[C@H]3[C@@H]4CC=C5C[C@@H](O[C@@H]6O[C@H](CO)[C@H](O)[C@H](O[C@@H]7OC[C@@H](O)[C@H](O)[C@H]7O)[C@H]6O[C@@H]6O[C@@H](C)[C@H](O)[C@@H](O)[C@H]6O)CC[C@]5(C)[C@H]4CC[C@]3(C)[C@H]1[C@@H]2C [INDIOSIDE E]: 5.61

// next item, pIC50 requested
IN: # get_value(readout='pIC50', item= C[C@@H]1CC[C@@]2(OC1)O[C@H]1C[C@H]3[C@@H]4CC[C@H]5C[C@@H](O[C@@H]6O[C@H](CO)[C@H](O)[C@H](O[C@@H]7OC[C@@H](O)[C@H](O)[C@H]7O)[C@H]6O[C@@H]6O[C@@H](C)[C@H](O)[C@@H](O)[C@H]6O)CC[C@]5(C)[C@H]4CC[C@]3(C)[C@H]1[C@@H]2C )
OUT: 5.51
